Target Entity: PKC-δ (Homo sapiens, UniProt Q05655)
Construct: purchased Invitrogen (Sinobiological for the SUW402 experiment)
Sequence (Q05655 whole entry): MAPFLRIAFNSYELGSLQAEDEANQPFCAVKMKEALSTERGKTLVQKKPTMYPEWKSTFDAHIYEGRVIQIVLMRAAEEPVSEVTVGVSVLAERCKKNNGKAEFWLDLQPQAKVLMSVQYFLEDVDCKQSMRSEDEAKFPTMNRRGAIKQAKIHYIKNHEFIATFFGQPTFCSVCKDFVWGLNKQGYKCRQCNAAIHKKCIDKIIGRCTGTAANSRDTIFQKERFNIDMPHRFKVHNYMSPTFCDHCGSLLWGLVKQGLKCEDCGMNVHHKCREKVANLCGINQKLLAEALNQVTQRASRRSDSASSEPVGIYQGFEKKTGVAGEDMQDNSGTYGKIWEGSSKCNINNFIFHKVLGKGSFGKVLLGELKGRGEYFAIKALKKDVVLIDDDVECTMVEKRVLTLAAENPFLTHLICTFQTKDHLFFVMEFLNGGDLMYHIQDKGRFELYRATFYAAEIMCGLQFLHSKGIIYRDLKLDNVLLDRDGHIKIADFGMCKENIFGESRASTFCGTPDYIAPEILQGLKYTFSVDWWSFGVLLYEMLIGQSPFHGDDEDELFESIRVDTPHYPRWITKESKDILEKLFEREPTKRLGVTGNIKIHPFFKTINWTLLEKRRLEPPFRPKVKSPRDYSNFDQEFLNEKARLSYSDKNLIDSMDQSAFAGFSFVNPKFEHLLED
Assay Procedure: Cell-free PKC competition binding assay against 3H-PDBu
Cond: HotNM 2.5; HotKdNM 0.62; supplement fit; read-out: Ki (best-fit value), PKC-δ
Exercise: state measured pKi for each of the molecules provided.
Answers are plain numbers, as −log10 of the molar value.

The cases that follow already have their pKi on record.
C/C=C(\C)C(=O)O[C@@H]1[C@@H](C)[C@@]2(O)[C@H]([C@@H]3C(C)(C)[C@]13OC(=O)Cc1cccc3ccccc13)[C@@H]1O[C@]1(CO)[C@@H](O)[C@]1(O)C(=O)C(C)=C[C@H]12 [SUW431] : 9.94
CC[C@H](C)C(=O)O[C@@]12[C@H](OC(=O)C3(C)CC3)[C@@H](C)[C@@]3(O)[C@H]([C@@H]1C2(C)C)[C@@H]1O[C@]1(CO)[C@@H](O)[C@]1(O)C(=O)C(C)=C[C@H]13 [SUW413] : 8.01

Now examine the next entry.
If you can, please state the reported pKi value of C/C=C(\C)C(=O)O[C@@H]1[C@@H](C)[C@]2(O)[C@@H]3C=C(C)C(=O)[C@@]3(O)[C@H](O)C(CO)=C[C@H]2[C@@H]2C(C)(C)[C@]12OC(=O)[C@@H](C)CC [SUW400] . 8.60

----------
Exercise: state measured PKC-β selectivity for each of the compounds provided.
Target Entity: PKC-β-I (Homo sapiens, UniProt P05771)
Construct: purchased Invitrogen
Sequence (P05771 whole entry): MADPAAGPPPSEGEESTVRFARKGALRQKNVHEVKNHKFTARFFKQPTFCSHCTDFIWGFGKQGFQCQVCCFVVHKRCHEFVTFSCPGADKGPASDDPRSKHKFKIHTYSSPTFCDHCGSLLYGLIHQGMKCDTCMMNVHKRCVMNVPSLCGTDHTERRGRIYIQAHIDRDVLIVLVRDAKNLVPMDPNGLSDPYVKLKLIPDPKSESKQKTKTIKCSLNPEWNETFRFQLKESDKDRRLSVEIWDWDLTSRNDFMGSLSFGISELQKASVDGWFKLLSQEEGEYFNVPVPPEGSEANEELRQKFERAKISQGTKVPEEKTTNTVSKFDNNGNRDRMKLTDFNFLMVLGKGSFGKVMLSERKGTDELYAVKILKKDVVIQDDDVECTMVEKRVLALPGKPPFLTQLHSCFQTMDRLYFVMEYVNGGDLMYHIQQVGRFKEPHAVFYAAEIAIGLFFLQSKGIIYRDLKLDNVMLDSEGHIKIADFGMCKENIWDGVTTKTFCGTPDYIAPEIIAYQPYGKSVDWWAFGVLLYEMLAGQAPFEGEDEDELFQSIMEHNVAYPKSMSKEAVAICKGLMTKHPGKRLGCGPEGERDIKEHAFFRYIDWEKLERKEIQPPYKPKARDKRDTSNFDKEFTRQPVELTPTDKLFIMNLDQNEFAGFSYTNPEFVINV
Assay Procedure: Cell-free PKC competition binding assay against 3H-PDBu
Cond: Fig. 7A; PKC-β over PKC-δ
Answers are plain numbers.

C/C=C(\C)C(=O)O[C@@H]1[C@@H](C)[C@@]2(O)[C@H]([C@@H]3C(C)(C)[C@]13OC(=O)c1ccccc1)[C@@H]1O[C@]1(CO)[C@@H](O)[C@]1(O)C(=O)C(C)=C[C@H]12 [SUW428] : 12.5

Quick one: give me PKC-β selectivity for each item below, same order please.
1. CC=C(C)C(=O)OC1C(C)C2(O)C(C3OC3(CO)CC3(O)C(=O)C(C)=CC32)C2C(C)(C)C12OC(=O)C(C)CC (centres unmarked) [SUW403]
2. C/C=C(\C)C(=O)O[C@@H]1[C@@H](C)[C@@]2(O)[C@H]([C@@H]3C(C)(C)[C@]13OC(=O)[C@@H](C)CC)[C@@H]1O[C@]1(CO)[C@@H](O)[C@]1(O)C(=O)C(C)=C[C@H]12 [EBC-46, Tigilanol tiglate]
3. C/C=C(\C)C(=O)O[C@@H]1[C@@H](C)[C@@]2(O)[C@@H](C=C(CO)C[C@]3(O)C(=O)C(C)=C[C@@H]23)[C@@H]2C(C)(C)[C@]12OC(=O)[C@@H](C)CC [SUW402]
4. CC=C(C)C(=O)OC1C(C)C2(O)C(C3OC3(COC)C(O)C3(O)C(=O)C(C)=CC32)C2C(C)(C)C12OC(=O)C(C)CC (centres unmarked) [SUW426]

2.7
2.3
3.7
1.8

----------
Exercise: state measured Ki for each of the compounds provided.
Target Entity: PKC-δ (Homo sapiens)
Construct: purchased Invitrogen (Sinobiological for the SUW402 experiment)
Assay Procedure: Cell-free PKC competition binding assay against 3H-PDBu
Cond: competition against radiolabeled PDBu; Fig. 7A and text; read-out: Ki PKC-δ
Answers are plain numbers, in µM.

CC=C(C)C(=O)OC1C(C)C2(O)C(C3OC3(COC)C(O)C3(O)C(=O)C(C)=CC32)C2C(C)(C)C12OC(=O)C(C)CC (centres unmarked) : 0.7

Quick one: give me Ki for each item below, same order please.
1. C/C=C(\C)C(=O)O[C@@H]1[C@@H](C)[C@]2(O)[C@@H]3C=C(C)[C@H](OC(=O)C=C(C)C)[C@@]3(O)[C@H](O)C(CO)=C[C@H]2[C@@H]2C(C)(C)[C@]12OC(=O)[C@@H](C)CC
2. C/C=C(\C)C(=O)O[C@@H]1[C@@H](C)[C@@]2(O)[C@H]([C@@H]3C(C)(C)[C@]13OC(=O)[C@H](C)CC)[C@@H]1O[C@]1(CO)[C@@H](O)[C@]1(O)C(=O)C(C)=C[C@H]12

[0.0047, 0.0037]

Quick one: give me Ki for each item below, same order please.
1. C/C=C(\C)C(=O)O[C@@H]1[C@@H](C)[C@@]2(O)[C@H]([C@@H]3C(C)(C)[C@]13OC(=O)N1CCCC1)[C@@H]1O[C@]1(CO)[C@@H](O)[C@]1(O)C(=O)C(C)=C[C@H]12
2. C/C=C(\C)C(=O)O[C@@H]1[C@@H](C)[C@@]2(O)[C@H]([C@@H]3C(C)(C)[C@]13OC(=O)c1ccccc1)[C@@H]1O[C@]1(CO)[C@@H](O)[C@]1(O)C(=O)C(C)=C[C@H]12

[0.19, 0.064]

----------
Target Entity: PKC-δ (Homo sapiens, UniProt Q05655)
Construct: purchased Invitrogen (Sinobiological for the SUW402 experiment)
Assay Procedure: Cell-free PKC competition binding assay against 3H-PDBu
Cond: log of Ki in nM; HotNM 2.5; HotKdNM 0.62
Label True when logKi (best-fit value), PKC-δ is at or above 2; anything below gets False.

Example results:
C/C=C(\C)C(=O)O[C@@H]1[C@@H](C)[C@]2(O)[C@@H]3C=C(C)[C@H](OC(=O)c4ccccc4)[C@@]3(O)[C@H](O)C(CO)=C[C@H]2[C@@H]2C(C)(C)[C@]12OC(=O)[C@@H](C)CC : False
C/C=C(\C)C(=O)O[C@@H]1[C@@H](C)[C@@]2(O)[C@H]([C@@H]3C(C)(C)[C@]13OC(=O)C1CCC1)[C@@H]1O[C@]1(CO)[C@@H](O)[C@]1(O)C(=O)C(C)=C[C@H]12 : False
C/C=C(\C)C(=O)O[C@@H]1[C@@H](C)[C@@]2(O)[C@H]([C@@H]3C(C)(C)[C@]13OC(=O)N1CCCC1)[C@@H]1O[C@]1(CO)[C@@H](O)[C@]1(O)C(=O)C(C)=C[C@H]12 : True
C/C=C(\C)C(=O)O[C@@H]1[C@@H](C)[C@@]2(O)[C@H]([C@@H]3C(C)(C)[C@]13OC(=O)c1ccccc1)[C@@H]1O[C@]1(CO)[C@@H](O)[C@]1(O)C(=O)C(C)=C[C@H]12 : False

Quick check: does `C/C=C(\C)C(=O)O[C@@H]1[C@@H](C)[C@@]2(O)[C@H]([C@@H]3C(C)(C)[C@]13OC(=O)[C@H](C)CC)[C@@H]1O[C@]1(CO)[C@@H](O)[C@]1(O)C(=O)C(C)=C[C@H]12` have logKi (best-fit value), PKC-δ greater than or equal to 2? False

----------
Target Entity: PKC-β-I (Homo sapiens)
Construct: purchased Invitrogen
Assay Procedure: Cell-free PKC competition binding assay against 3H-PDBu
Cond: log of Ki in nM; HotNM 2.5; HotKdNM 0.37
Description: With a diverse library of compounds bearing unique functionalities on the A-, B-, and C-rings (Fig. 6), we began to explore how these modifications affect PKC binding (Fig. 7A), NF-κB activation (Fig. 7B), cell permeation and PKC translocation (Fig. 7, C and D), and latency reversal in J-Lat cells (Fig. 8). […] The protein kinase C (PKC) affinity of EBC-46 and EBC-46 analogs was determined via […]
Criterion: logKi (best-fit value), PKC-β-I strictly less than 0.3. Met: Y. Not met: N.

Example results:
C/C=C(\C)C(=O)O[C@@H]1[C@@H](C)[C@@]2(O)[C@H]([C@@H]3C(C)(C)[C@]13OC(=O)[C@@H](C)CC)[C@@H]1O[C@]1(CO)[C@@H](O)[C@]1(O)C(=O)C(C)=C[C@H]12 [EBC-46, Tigilanol tiglate] : Y
C/C=C(\C)C(=O)O[C@@H]1[C@@H](C)[C@@]2(O)[C@H]([C@@H]3C(C)(C)[C@]13OC(=O)N1CCCC1)[C@@H]1O[C@]1(CO)[C@@H](O)[C@]1(O)C(=O)C(C)=C[C@H]12 : N
C/C=C(\C)C(=O)O[C@@H]1[C@@H](C)[C@]2(O)[C@@H]3C=C(C)[C@H](OC(=O)c4ccccc4)[C@@]3(O)[C@H](O)C(CO)=C[C@H]2[C@@H]2C(C)(C)[C@]12OC(=O)[C@@H](C)CC : Y

For this compound, is logKi (best-fit value), PKC-β-I lower than 0.3? `CC[C@H](C)C(=O)O[C@@]12[C@H](OC(C)(C)C)[C@@H](C)[C@@]3(O)[C@H]([C@@H]1C2(C)C)[C@@H]1O[C@]1(CO)[C@@H](O)[C@]1(O)C(=O)C(C)=C[C@H]13` Y

----------
Target Entity: PKC-β-I (Homo sapiens)
Construct: purchased Invitrogen
Assay Procedure: Cell-free PKC competition binding assay against 3H-PDBu
Cond: read-out: binding for PKC-β (Ki)
Assay Readout: Ki (nM)
Give bare numbers, in nM.

If you can, please state the reported Ki value of C/C=C(\C)C(=O)O[C@@H]1[C@@H](C)[C@@]2(O)[C@H]([C@@H]3C(C)(C)[C@]13OC(=O)Cc1cccc3ccccc13)[C@@H]1O[C@]1(CO)[C@@H](O)[C@]1(O)C(=O)C(C)=C[C@H]12 [SUW431] . 0.079
